These measurements were taken from ChEMBL document CHEMBL4339211.

Entries and their Activity values follow.
- measurement-target: UniProtKB P14416
- Sequence (P14416 whole entry): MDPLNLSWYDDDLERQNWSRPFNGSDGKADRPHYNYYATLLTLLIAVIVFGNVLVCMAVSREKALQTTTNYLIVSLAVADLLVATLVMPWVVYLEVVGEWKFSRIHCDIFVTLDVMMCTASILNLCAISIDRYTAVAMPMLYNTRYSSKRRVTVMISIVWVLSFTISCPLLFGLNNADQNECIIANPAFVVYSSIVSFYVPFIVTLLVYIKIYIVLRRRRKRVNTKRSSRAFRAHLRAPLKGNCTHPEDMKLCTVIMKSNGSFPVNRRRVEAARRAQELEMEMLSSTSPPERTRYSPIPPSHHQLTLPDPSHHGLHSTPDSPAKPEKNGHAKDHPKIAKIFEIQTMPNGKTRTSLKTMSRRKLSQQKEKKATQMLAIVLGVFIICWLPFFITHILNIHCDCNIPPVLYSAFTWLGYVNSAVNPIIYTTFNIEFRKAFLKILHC
- measurement-protocol: Agonist activity at D2 receptor (unknown origin) expressed in CHOK1 cells assessed as increase in calcium flux at 10 uM incubated for 60 mins at 37 degC followed by 15 mins incubation under room temperature measured after 20 secs for 100 secs by calcium-4 dye based FLIPR assay relative to control
- Format: functional, cell-based

- molecule: "COc1cc2c(cc1OC)C1Cc3c(cc(O)c(OC)c3OC)CN1CC2 (racemic)"
  output-unit: "%"
  Activity: 6.88
- molecule: "COc1cc2c(cc1OC)C1Cc3ccc(O)cc3CN1CC2 (racemic)"
  output-unit: "%"
  Activity: 2.39
- molecule: "Oc1cccc2c1CC1c3cc4c(cc3CCN1C2)OCO4 (racemic)"
  output-unit: "%"
  Activity: 2.22
- molecule: "COc1cc2c(cc1OC)C1Cc3ccc(OC)c(O)c3CN1CC2 (racemic)"
  output-unit: "%"
  Activity: 5.52
- molecule: "c1ccc(COc2cccc3c2CC2c4cc5c(cc4CCN2C3)OCO5)cc1 (racemic)"
  output-unit: "%"
  Activity: 2.5
- molecule: "COc1cc(/C=C/C(=O)Oc2c(OC)ccc3c2CN2CCc4cc5c(cc4C2C3)OCO5)ccc1OC(C)=O (racemic)"
  output-unit: "%"
  Activity: 2.97
- molecule: "COc1ccc2c(c1O[C@@H]1O[C@H](CO)[C@@H](O)[C@H](O)[C@H]1O)CN1CCc3cc4c(cc3[C@H]1C2)OCO4"
  output-unit: "%"
  Activity: 3.17
- molecule: "COc1cc2c(cc1O)CC1c3cc(OC)c(OC)cc3CCN1C2 (racemic)"
  output-unit: "%"
  Activity: 3.35
- molecule: "COc1cc2c(cc1OC)[C@@H]1Cc3ccc(OC)c(OC)c3CN1CC2 [TETRAHYDROPALMATINE]"
  output-unit: "%"
  Activity: 3.51
- molecule: "Oc1ccc2c(c1)CN1CCc3cc4c(cc3C1C2)OCO4 (racemic)"
  output-unit: "%"
  Activity: 2.17
- molecule: "COc1cc2c(cc1O)C1Cc3cc(OC)c(OC)cc3CN1CC2 (racemic)"
  output-unit: "%"
  Activity: 3.67
- molecule: "COc1cc2c(c(OC)c1O)CC1c3cc4c(cc3CCN1C2)OCO4 (racemic)"
  output-unit: "%"
  Activity: 1.29
- molecule: "COc1ccc2c(c1OC)CN1CCc3cc(O)c(O)cc3C1C2 (racemic)"
  output-unit: "%"
  Activity: 2.53
- molecule: "COc1cc2c(cc1OC)C1Cc3c(cc(OC)c(O)c3OC)CN1CC2 (racemic)"
  output-unit: "%"
  Activity: 3.74
- molecule: "COc1ccc2c(c1OC(C)=O)CN1CCc3cc4c(cc3C1C2)OCO4 (racemic)"
  output-unit: "%"
  Activity: 4.5
- molecule: "COc1ccc2c(c1O)CN1CCc3cc(O)c(O)cc3C1C2 (racemic)"
  output-unit: "%"
  Activity: 4.27
- molecule: "COc1cc2c(cc1O)CC1c3cc4c(cc3CCN1C2)OCO4 (racemic)"
  output-unit: "%"
  Activity: 3.81
- molecule: "COc1ccc2c(c1O[C@@H]1O[C@H](CO)[C@@H](O)[C@H](O)[C@H]1O)CN1CCc3cc4c(cc3[C@@H]1C2)OCO4"
  output-unit: "%"
  Activity: 2.96
